molecular target: Human GPR120 short form (Homo sapiens); construct: expressed in transfected cells; assay: Human GPR120 in Calcium Flux Assay, Procedure Calcium A (2500 cells/well); format: cell-based
Sequence (Q5NUL3 whole entry): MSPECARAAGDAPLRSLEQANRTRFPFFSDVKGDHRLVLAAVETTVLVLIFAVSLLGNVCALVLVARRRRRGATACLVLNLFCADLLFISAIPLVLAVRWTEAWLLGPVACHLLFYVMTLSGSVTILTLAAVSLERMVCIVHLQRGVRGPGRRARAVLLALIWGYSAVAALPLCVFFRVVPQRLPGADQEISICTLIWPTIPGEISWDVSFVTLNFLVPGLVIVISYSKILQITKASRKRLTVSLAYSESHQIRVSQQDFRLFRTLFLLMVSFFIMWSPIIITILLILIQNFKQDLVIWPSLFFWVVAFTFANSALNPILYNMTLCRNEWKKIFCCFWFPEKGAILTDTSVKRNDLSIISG
METRIC: EC50 (µM)

1. CCc1cc2ccc(OC(F)F)c(COc3ccc(CCC(=O)O)c(C)c3C)c2o1; 0.162
2. Cc1c(CCC(=O)O)ccc(OCc2cc(Cl)cc3cnn(C)c23)c1C; 0.124
3. Cc1oc2c(COc3c(Br)cc(CCC(=O)O)c(C)c3C)cc(OC(F)(F)F)cc2c1Br; 1.54
4. CCCc1cc2cc(Cl)cc(COc3ccc(CCC(=O)O)c(C)c3C#N)c2o1; 0.291
5. CCc1cc2cc3c(c(COc4ccc(CCC(=O)O)c(C)c4C)c2o1)CC(C)(C)O3; 0.759
6. Cc1c(CCC(=O)O)ccc(OCc2cc(F)cc3cc(C(F)F)oc23)c1C; 0.277
7. Cc1oc2cccc(COc3ccc(CCC(=O)O)c(C)c3C)c2c1C; 0.162
8. Cc1cc2cc(Cl)cc(COc3ccc(CCC(=O)O)c(C)c3C)c2o1; 0.02
9. Cc1c(CCC(=O)O)ccc(OCc2cc(OC(F)(F)F)cc3cc(CCO)oc23)c1C; 0.274
10. Cc1cc2c(F)c(OC(F)(F)F)c(F)c(COc3ccc(CCC(=O)O)c(F)c3F)c2o1; 0.182
11. Cc1c(CCC(=O)O)ccc(OCc2cc(F)cc3sc(CC(C)C)nc23)c1C; 0.468
12. Cc1oc2c(COc3ccc(CCC(=O)O)c(C)c3C)cc(F)cc2c1F; 1.24
